Where do these numbers come from? They come from paper PMC8705693.

- Target: NHE1 (Homo sapiens, UniProt P19634)
- Construct: the activity of the NHE1 protein in DU 145 cells
- Sequence (P19634 whole entry): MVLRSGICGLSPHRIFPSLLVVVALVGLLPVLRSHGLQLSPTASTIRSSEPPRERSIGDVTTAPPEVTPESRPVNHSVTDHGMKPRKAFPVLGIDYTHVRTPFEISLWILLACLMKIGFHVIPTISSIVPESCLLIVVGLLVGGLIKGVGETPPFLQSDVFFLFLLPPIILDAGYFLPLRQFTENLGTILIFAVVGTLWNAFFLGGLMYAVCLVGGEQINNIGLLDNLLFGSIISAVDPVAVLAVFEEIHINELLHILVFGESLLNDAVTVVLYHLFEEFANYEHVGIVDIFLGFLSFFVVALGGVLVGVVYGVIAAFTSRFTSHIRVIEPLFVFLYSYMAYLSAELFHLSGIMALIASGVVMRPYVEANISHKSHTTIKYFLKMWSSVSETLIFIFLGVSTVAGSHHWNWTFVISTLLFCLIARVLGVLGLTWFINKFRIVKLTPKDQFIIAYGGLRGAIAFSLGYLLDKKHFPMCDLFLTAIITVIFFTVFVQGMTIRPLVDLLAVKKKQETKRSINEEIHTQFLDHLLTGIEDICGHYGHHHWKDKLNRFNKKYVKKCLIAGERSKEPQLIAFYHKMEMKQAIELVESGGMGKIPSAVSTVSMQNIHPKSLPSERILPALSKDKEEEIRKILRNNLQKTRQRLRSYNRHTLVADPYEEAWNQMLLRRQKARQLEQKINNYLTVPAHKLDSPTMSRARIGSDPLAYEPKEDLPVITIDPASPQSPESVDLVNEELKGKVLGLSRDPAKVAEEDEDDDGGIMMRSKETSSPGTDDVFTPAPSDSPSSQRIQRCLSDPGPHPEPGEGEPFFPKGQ
- Experimental Details: Na+/H+ exchanger activity, double ammonium chloride pulse assay in DU 145 cells
- Experimental Setup: DU 145 cells, double-pulse assay; read-out: Potency (IC50) towards NHE1
Test Readout: IC50 (µM)
Quick reminder: number only, in µM, skip the unit.

Input line: Bench note: what IC50 did [H]/N=C(\N)NC(=O)c1cc(S(C)(=O)=O)c(S(C)(=O)=O)cc1C [EMD87580, rimeporide] show?
Output line: 0.45
